# ASSAY_TARGET: KPNA4 ARM (importin subunit alpha-3, armadillo repeat domain) (human) (UniProt O00629)
# Sequence (O00629 whole entry, the tested form may be a part): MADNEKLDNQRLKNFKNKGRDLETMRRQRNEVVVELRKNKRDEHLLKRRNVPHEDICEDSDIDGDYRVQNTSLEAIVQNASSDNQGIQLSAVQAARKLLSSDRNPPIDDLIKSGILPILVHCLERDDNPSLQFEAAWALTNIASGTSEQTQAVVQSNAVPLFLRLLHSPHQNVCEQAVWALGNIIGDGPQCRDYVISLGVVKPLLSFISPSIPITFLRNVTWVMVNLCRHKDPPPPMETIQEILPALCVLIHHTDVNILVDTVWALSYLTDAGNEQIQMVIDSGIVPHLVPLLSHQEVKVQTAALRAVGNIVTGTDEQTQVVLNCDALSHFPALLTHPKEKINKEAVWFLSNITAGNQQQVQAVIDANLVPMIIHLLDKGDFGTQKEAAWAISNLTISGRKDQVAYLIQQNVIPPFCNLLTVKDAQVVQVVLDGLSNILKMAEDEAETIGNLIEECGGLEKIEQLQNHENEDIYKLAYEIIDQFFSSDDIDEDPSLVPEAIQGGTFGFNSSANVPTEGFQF
# MEASUREMENT_PROTOCOL: fluorescence polarisation; competition: unlabelled peptide in serial dilution against KPNA4 ARM (master mix at four times the KD) with the probe FITC-NCOR2(1307-1322), probe of the minor pocket; 50 mM KPO4 pH 7.5; Ki calculated from IC50
[ ]: non-standard residue; d: D form. pS = N[C@@H](COP(=O)(O)O)C(=O)O
OBSERVED_PROPERTY: Ki (µM)

INSERT INTO assay_data (binder, reported_measurement) VALUES
  ('Ac-EI[pS]LKRSYESVEGNIK-NH2 (SMILES CC[C@H](C)[C@H](NC(=O)[C@H](CC(N)=O)NC(=O)CNC(=O)[C@H](CCC(=O)O)NC(=O)[C@@H](NC(=O)[C@H](CO)NC(=O)[C@H](CCC(=O)O)NC(=O)[C@H](Cc1ccc(O)cc1)NC(=O)[C@H](CO)NC(=O)[C@H](CCCNC(=N)N)NC(=O)[C@H](CCCCN)NC(=O)[C@H](CC(C)C)NC(=O)[C@H](COP(=O)(O)O)NC(=O)[C@@H](NC(=O)[C@H](CCC(=O)O)NC(C)=O)[C@@H](C)CC)C(C)C)C(=O)N[C@@H](CCCCN)C(N)=O) [NCOR1 1240-1255 peptide, pS1242]', 10);
